Cited source for all entries: patent US20250326840A1

- Study System: T1, QP096 (human SIRPα V2 ECD(E31-R370)-flag-his) (human)
- T1 construct: the construct carries flag and his tags; also called SIRPαV2-Flag-his; Human SIRPα V2 (QP096)
- T1 sequence (chain, as listed by the source limits assumed): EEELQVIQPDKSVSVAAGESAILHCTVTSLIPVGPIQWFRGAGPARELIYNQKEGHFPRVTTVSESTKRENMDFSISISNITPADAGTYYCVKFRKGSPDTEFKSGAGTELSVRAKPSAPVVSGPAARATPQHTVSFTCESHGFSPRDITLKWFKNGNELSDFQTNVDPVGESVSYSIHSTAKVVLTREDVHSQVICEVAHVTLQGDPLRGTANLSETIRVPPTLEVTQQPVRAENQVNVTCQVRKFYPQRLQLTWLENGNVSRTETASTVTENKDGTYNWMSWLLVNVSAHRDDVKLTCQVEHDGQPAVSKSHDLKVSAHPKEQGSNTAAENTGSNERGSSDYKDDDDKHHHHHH
- Assay Text: binding ELISA, antigen coated
In this section we review reported EC50 values for a set of binders.
Lab book: enter the figure in ng/mL, no units written.

Task: Report EC50 for QP2561771 (antibody, human IgG4, V domains shown, Human IgG4 heavy constant region and kappa CL) VH: QVQLVQSGAEVKKPGASVKVSCKASGYTFTNYWINWVRQAPGQGLEWIAMIDPSDSETHYNQIFKDRATLTTDTSTSTAYMELRSLRSDDTAVYYCAMDYGSLYAMDYWGRGTLVTVSS VL: DIVLTQSPDSLAVSLGERATINCRASKSVSSSGYNWIFWYQQKPGQPPKLLIYLASNRDSGVPDRFSGSGSGTDFTLTISSLQAEDVAVYYCQESRELPTFGQGTKLEIK please.
Output: 1.13

Task: Report EC50 for QP256279 (antibody, human IgG4, V domains shown, Human IgG4 heavy constant region and kappa CL) VH: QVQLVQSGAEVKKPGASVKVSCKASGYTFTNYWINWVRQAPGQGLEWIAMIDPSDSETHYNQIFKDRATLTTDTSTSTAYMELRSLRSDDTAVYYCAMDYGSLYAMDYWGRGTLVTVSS VL: DIVLTQSPDSLAVSLGERATINCRASQSVRSSGYNWIFWYQQKPGQPPKLLIYLASNRDSGVPDRFSGSGSGTDFTLTISSLQAEDVAVYYCQHSRELPTFGQGTKLEIK please.
Output: 0.624

Task: Report EC50 for QP2561594 (antibody, human IgG4, V domains shown, Human IgG4 heavy constant region and kappa CL) VH: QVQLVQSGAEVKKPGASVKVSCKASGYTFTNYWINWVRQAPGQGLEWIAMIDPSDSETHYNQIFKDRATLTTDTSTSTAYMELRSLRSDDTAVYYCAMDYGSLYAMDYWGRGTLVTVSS VL: DIVLTQSPDSLAVSLGERATINCRASKSVSSSGYNYIFWYQQKPGQPPKLLIYLASNLDSGVPDRFSGSGSGTDFTLTISSLQAEDVAVYYCQHSRDLPTFGQGTKLEIK please.
Output: 1.05
